# target-entity: PLA2G7 (Mus musculus, UniProt Q60963)
# Construct: Proteomes (mouse brain membrane fraction or cell lysates); from tissue; host or cells: mouse brain membrane fraction (or cell lysates, not specified)
# Sequence (Q60963 22-440): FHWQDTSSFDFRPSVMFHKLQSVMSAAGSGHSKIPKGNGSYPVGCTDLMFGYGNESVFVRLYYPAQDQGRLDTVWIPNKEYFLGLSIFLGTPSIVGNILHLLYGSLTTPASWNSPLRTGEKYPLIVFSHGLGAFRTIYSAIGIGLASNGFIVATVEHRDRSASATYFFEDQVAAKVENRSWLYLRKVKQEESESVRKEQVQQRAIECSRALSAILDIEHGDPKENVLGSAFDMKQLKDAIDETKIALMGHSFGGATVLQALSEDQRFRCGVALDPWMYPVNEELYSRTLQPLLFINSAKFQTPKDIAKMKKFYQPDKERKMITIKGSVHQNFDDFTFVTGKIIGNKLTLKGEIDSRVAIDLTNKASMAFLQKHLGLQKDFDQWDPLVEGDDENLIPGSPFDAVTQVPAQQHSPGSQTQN
# assay-summary: In vitro competitive activity-based protein profiling (gel-based, FP-Rh or HT-01 probe)
# Assay type: biochemical
# condition-context: 10 μM inhibitor; read-out: % Inhibition at 10 μM, D = PLA2G7
# Description: In Vitro Competitive Activity-Based Protein Profiling. Proteomes (mouse brain membrane fraction or cell lysates) (50 μL, 1.0 mg/mL total protein concentration) were preincubated with varying concentrations of inhibitors at 37° C. […] Following gel imaging, serine hydrolase activity was determined by measuring fluorescent intensity of gel bands corresponding to MAGL, ABHD6, FAAH, and PLA2G7 using ImageJ 1.43u software.
Listed here are compounds together with their documented inhibition at 10 µM.

Consider the following illustrative entries.
>  <compound>
Cc1cccc(N2CCN(C(=O)n3cc(C(F)(F)F)cn3)CC2)c1 [Example 231]

>  <inhibition at 10 µM>
> 75%

$$$$
>  <compound>
CCN(Cc1ccc(C)cc1)C(=O)n1cc(Cl)cn1 [Example 133]

>  <inhibition at 10 µM>
< 25%

$$$$

Input line: Sample Cc1cnn(C(=O)N2CCN(Cc3ccc(Oc4ccccc4)cc3)CC2)c1 [Example 17] — what was its inhibition at 10 µM?
Output line: < 25%

Input line: Which inhibition at 10 µM reading was recorded for the compound O=C(c1cnn(C(=O)N2CCN(Cc3ccncc3)CC2)c1)N1CCCCC1 [Example 70] ?
Output line: > 75%

Input line: # inhibition at 10 µM lookup, item O=C(c1cnn(C(=O)N2CCN(Cc3ccccn3)CC2)c1)N1CCOCC1 [Example 77]
Output line: > 75%
